Biological target: human melanocortin-1 receptor hMCR-1 expressed by the human melanoma cell line HBL (human, UniProt Q01726 1-317)
Sequence (Q01726 whole entry): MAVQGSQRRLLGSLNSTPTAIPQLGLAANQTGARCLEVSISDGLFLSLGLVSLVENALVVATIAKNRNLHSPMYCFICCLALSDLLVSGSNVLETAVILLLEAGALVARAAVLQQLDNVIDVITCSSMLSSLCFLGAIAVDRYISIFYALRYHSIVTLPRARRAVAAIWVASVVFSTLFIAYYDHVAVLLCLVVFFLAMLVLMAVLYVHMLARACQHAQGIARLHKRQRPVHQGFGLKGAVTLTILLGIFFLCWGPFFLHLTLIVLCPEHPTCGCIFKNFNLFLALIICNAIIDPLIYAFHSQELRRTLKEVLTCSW
Experiment: cell-based or functional assay
Bridge positions count the residues as written; N and C are the ends. Square brackets hold non-standard residues; d marks the D form. dPhe(4-Me) = Cc1ccc(C[C@@H](N)C(=O)O)cc1; dPhe(2-F) = N[C@H](Cc1ccccc1F)C(=O)O; Nle = CCCC[C@H](N)C(=O)O; Orn = NCCC[C@H](N)C(=O)O; Dab = NCC[C@H](N)C(=O)O; Dap = NC[C@H](N)C(=O)O
readout type: MC-1 Emax (average; cAMP HBL) (%)
Write the number in % without appending the unit.

As a guide, the following entries are already answered.
[
  {
    "binder": "Ac-[Nle]E[Orn][dPhe(2-F)]R[Dab]-NH2 (lactam 2-6; SMILES CCCC[C@H](NC(C)=O)C(=O)N[C@H]1CCC(=O)NCC[C@@H](C(N)=O)NC(=O)[C@H](CCCNC(=N)N)NC(=O)[C@@H](Cc2ccccc2F)NC(=O)[C@H](CCCN)NC1=O) [Ac-Nle-cyclo(Glu-Orn-D-Phe(2-F)-Arg-Dab)-NH2]",
    "readout type": "MC-1 Emax (average; cAMP HBL)",
    "readout value": 95
  },
  {
    "binder": "Ac-[Nle]E[Orn][dPhe(4-Me)]R[Dab]-NH2 (lactam 2-6; SMILES CCCC[C@H](NC(C)=O)C(=O)N[C@H]1CCC(=O)NCC[C@@H](C(N)=O)NC(=O)[C@H](CCCNC(=N)N)NC(=O)[C@@H](Cc2ccc(C)cc2)NC(=O)[C@H](CCCN)NC1=O) [Ac-Nle-cyclo(Glu-Orn-D-Phe(4-Me)-Arg-Dab)-NH2]",
    "readout type": "MC-1 Emax (average; cAMP HBL)",
    "readout value": 96
  }
]

API: the following record is the query input.
Lab note: Ac-[Nle]DH[dF]R[Dap]W-NH2 (lactam 2-6; SMILES CCCC[C@H](NC(C)=O)C(=O)N[C@H]1CC(=O)NC[C@@H](C(=O)N[C@@H](Cc2c[nH]c3ccccc23)C(N)=O)NC(=O)[C@H](CCCNC(=N)N)NC(=O)[C@@H](Cc2ccccc2)NC(=O)[C@H](Cc2c[nH]cn2)NC1=O) [Ac-Nle-cyclo(Asp-His-D-Phe-Arg-Dap)-Trp-NH2] gave MC-1 Emax (average; cAMP HBL) of 88
